These measurements were taken from patent US20240002497A1.

# Target Entity: huNav1.7α+β1 (human, UniProt Q15858 1-1988; Q07699 19-218)
# Experiment Description: cell-based or functional assay
Reported Endpoint: IC50 [M], electrophysiology (M)

Worked examples, 3 binders total:
>>> reported_value("F010301129 (VHH, vs F0103265A11: Y56W, V60N, S93A, L103Q) VHH: EVQLVESGGGLVQPGGSLRLSCAASGMLFNANTQGWYRQAPGKQRELVAFIFSGGWTNYNDSVKGRFTISRDNAKRTMYLQMNSLKPEDSAIYYCALSRYQGQGTLVTVSS")
"1.3e-07"
>>> reported_value("F010301080 (VHH, also called F0103265A11(S53W, T57V, N58T, V60N)) VHH: EVQLVESGGGLVQPGGSLRLSCAASGMLFNANTQGWYRQAPGKQRELVAFIFWGGYVTYNDSVKGRFTISRDNAKRTMYLQMNSLKPEDSAIYYCSLSRYLGQGTLVTVSS")
"1.4e-08"
>>> reported_value("F010301191 (VHH, vs F0103265A11: A31R, Y56W, V60N, S93A, R101V, L103Q) VHH: EVQLVESGGGLVQPGGSLRLSCAASGMLFNRNTQGWYRQAPGKQRELVAFIFSGGWTNYNDSVKGRFTISRDNAKRTMYLQMNSLKPEDSAIYYCALSVYQGQGTLVTVSS")
"6.3e-08"

I. F010301162 (VHH, vs F0103265A11: A31R, Y56W, V60N, L103Q) VHH: EVQLVESGGGLVQPGGSLRLSCAASGMLFNRNTQGWYRQAPGKQRELVAFIFSGGWTNYNDSVKGRFTISRDNAKRTMYLQMNSLKPEDSAIYYCSLSRYQGQGTLVTVSS
II. F010301090 (VHH, vs F0103265A11: Y56W, N58T, V60N, L103Q) VHH: EVQLVESGGGLVQPGGSLRLSCAASGMLFNANTQGWYRQAPGKQRELVAFIFSGGWTTYNDSVKGRFTISRDNAKRTMYLQMNSLKPEDSAIYYCSLSRYQGQGTLVTVSS
**Q:** Record comparison, field IC50 [M], electrophysiology: mark the lower of I and II . Select an item and report its label.
**A:** II
(II: 2.2e-08 M, I: 3.2e-08 M)
